- Test system: lacZ under control of the tetA promoter (PtetA) in E. coli KM3
- Format: cell-based
- conditionsUsed: Table 4; chlorsulfuron 20 ppm; 48 hrs at 30° C.
readoutKind: relative β-galactosidase activity, inducer Cs

{"molecule": "L1-9: SU-responsive TetR(B) variant, library L1 hit (protein, Sulfonylurea responsive repressor L1-09) MGSRLDKSKVINSALELLNEVGIEGLTTRKLAQKLGVEQPTLYWHVKNKRALLDALAIEMLDRHATHFCPLEGESWQDFLRNNAKSMRCALLSHRDGAKVCLGTGFTEKQYETAENSLAFLCQQGFSLENALYAMQAVCIFTLGCVLLDQELQVAKEERETPTTDSMPPLLRQALELKDHQGAEPAFLFGLELIICGLEKQLKCESGS", "testValue": 23.6}
